Test system: HeLa Kyoto
assay: thermal stability score vs G1/S (z-score of summed log2 fold changes over temperatures); higher = more thermally stable than in G1/S
study conditions: cell cycle stage: mitosis
measured quantity: thermal stability score
Write the number on its own, no unit after it.

MANEVIKCKAAVAWEAGKPLSIEEIEVAPPKAHEVRIKIIATAVCHTDAYTLSGADPEGCFPVILGHEGAGIVESVGEGVTKLKAGDTVIPLYIPQCGECKFCLNPKTNLCQKIRVTQGKGLMPDGTSRFTCKGKTILHYMGTSTFSEYTVVADISVAKIDPLAPLDKVCLLGCGISTGYGAAVNTAKLEPGSVCAVFGLGGVGLAVIMGCKVAGASRIIGVDINKDKFARAKEFGATECINPQDFSKPIQEVLIEMTDGGVDYSFECIGNVKVMRAALEACHKGWGVSVVVGVAASGEEIATRPFQLVTGRTWKGTAFGGWKSVESVPKLVSEYMSKKIKVDEFVTHNLSFDEINKAFELMHSGKSIRTVVKI [ADH5]    -2.86

Noted for MVELMFPLLLLLLPFLLYMAAPQIRKMLSSGVCTSTVQLPGKVVVVTGANTGIGKETAKELAQRGARVYLACRDVEKGELVAKEIQTTTGNQQVLVRKLDLSDTKSIRAFAKGFLAEEKHLHVLINNAGVMMCPYSKTADGFEMHIGVNHLGHFLLTHLLLEKLKESAPSRIVNVSSLAHHLGRIHFHNLQGEKFYNAGLAYCHSKLANILFTQELARRLKGSGVTTYSVHPGTVQSELVRHSSFMRWMWWLFSFFIKTPQQGAQTSLHCALTEGLEILSGNHFSDCHVAWVSAQARNETIARRLWDVSCDLLGLPID [RDH11] : its thermal stability score reads 0.26

###

Catalogue of substances with associated thermal stability score
Test system: HeLa Kyoto
assay: thermal stability score vs G1/S (z-score of summed log2 fold changes over temperatures); higher = more thermally stable than in G1/S
study conditions: cell cycle stage: early G1 (4.5 h after nocodazole release)
Hey, just send me the number, nothing else.

Consider the following illustrative entries.
MAVTALAARTWLGVWGVRTMQARGFGSDQSENVDRGAGSIREAGGAFGKREQAEEERYFRAQSREQLAALKKHHEEEIVHHKKEIERLQKEIERHKQKIKMLKHDD [ATPIF1]    3.16
MGILEKISEIEKEIARTQKNKATEYHLGLLKAKLAKYRAQLLEPSKSASSKGEGFDVMKSGDARVALIGFPSVGKSTFLSLMTSTASEAASYEFTTLTCIPGVIEYKGANIQLLDLPGIIEGAAQGKGRGRQVIAVARTADVIIMMLDATKGEVQRSLLEKELESVGIRLNKHKPNIYFKPKKGGGISFNSTVTLTQCSEKLVQLILHEYKIFNAEVLFREDCSPDEFIDVIVGNRVYMPCLYVYNKIDQISMEEVDRLARKPNSVVISCGMKLNLDYLLEMLWEYLALTCIYTKKRGQRPDFTDAIILRKGASVEHVCHRIHRSLASQFKYALVWGTSTKYSPQRVGLTHTMEHEDVIQIVKK [DRG2]    -0.377

thermal stability score for MKLLTHNLLSSHVRGVGSRGFPLRLQATEVRICPVEFNPNFVARMIPKVEWSAFLEAADNLRLIQVPKGPVEGYEENEEFLRTMHHLLLEVEVIEGTLQCPESGRMFPISRGIPNMLLSEEETES [TRMT112] is -4.68

The substance identified as MAAAAVSGALGRAGWRLLQLRCLPVARCRQALVPRAFHASAVGLRSSDEQKQQPPNSFSQQHSETQGAEKPDPESSHSPPRYTDQGGEEEEDYESEEQLQHRILTAALEFVPAHGWTAEAIAEGAQSLGLSSAAASMFGKDGSELILHFVTQCNTRLTRVLEEEQKLVQLGQAEKRKTDQFLRDAVETRLRMLIPYIEHWPRALSILMLPHNIPSSLSLLTSMVDDMWHYAGDQSTDFNWYTRRAMLAAIYNTTELVMMQDSSPDFEDTWRFLENRVNDAMNMGHTAKQVKSTGEALVQGLMGAAVTLKNLTGLNQRR [COQ9] registered its thermal stability score at -0.112

Consider MENSQLCKLFIGGLNVQTSESGLRGHFEAFGTLTDCVVVVNPQTKRSRCFGFVTYSNVEEADAAMAASPHAVDGNTVELKRAVSREDSARPGAHAKVKKLFVGGLKGDVAEGDLIEHFSQFGTVEKAEIIADKQSGKKRGFGFVYFQNHDAADKAAVVKFHPIQGHRVEVKKAVPKEDIYSGGGGGGSRSSRGGRGGRGRGGGRDQNGLSKGGGGGYNSYGGYGGGGGGGYNAYGGGGGGSSYGGSDYGNGFGGFGSYSQHQSSYGPMKSGGGGGGGGSSWGGRSNSGPYRGGYGGGGGYGGSSF [HNRNPA0] . Its measured thermal stability score is 3.72

thermal stability score in this record for GORASP1 : 0.552

Reported thermal stability score of MAAAEAGGDDARCVRLSAERAQALLADVDTLLFDCDGVLWRGETAVPGAPEALRALRARGKRLGFITNNSSKTRAAYAEKLRRLGFGGPAGPGASLEVFGTAYCTALYLRQRLAGAPAPKAYVLGSPALAAELEAVGVASVGVGPEPLQGEGPGDWLHAPLEPDVRAVVVGFDPHFSYMKLTKALRYLQQPGCLLVGTNMDNRLPLENGRFIAGTGCLVRAVEMAAQRQADIIGKPSRFIFDCVSQEYGINPERTVMVGDRLDTDILLGATCGLKTILTLTGVSTLGDVKNNQESDCVSKKKMVPDFYVDSIADLLPALQG [PGP] : -0.684

###

System: HeLa Kyoto
assay: melting temperature (median over replicates), in situ; higher = more thermally stable
study conditions: cell cycle stage: mitosis
Reported melting temperature values for the following sequences.
Value expressed in °C; do not type the unit.

MAERGELDLTGAKQNTGVWLVKVPKYLSQQWAKASGRGEVGKLRIAKTQGRTEVSFTLNEDLANIHDIGGKPASVSAPREHPFVLQSVGGQTLTVFTESSSDKLSLEGIVVQRAECRPAASENYMRLKRLQIEESSKPVRLSQQLDKVVTTNYKPVANHQYNIEYERKKKEDGKRARADKQHVLDMLFSAFEKHQYYNLKDLVDITKQPVVYLKEILKEIGVQNVKGIHKNTWELKPEYRHYQGEEKSD [GTF2F2]    52.6

Field melting temperature (entry MATRSPGVVISDDEPGYDLDLFCIPNHYAEDLERVFIPHGLIMDRTERLARDVMKEMGGHHIVALCVLKGGYKFFADLLDYIKALNRNSDRSIPMTVDFIRLKSYCNDQSTGDIKVIGGDDLSTLTGKNVLIVEDIIDTGKTMQTLLSLVRQYNPKMVKVASLLVKRTPRSVGYKPDFVGFEIPDKFVVGYALDYNEYFRDLNHVCVISETGKAKYKA [HPRT1] ) reads 59.7

The measured melting temperature associated with MKGLYFQQSSTDEEITFVFQEKEDLPVTEDNFVKLQVKACALSQINTKLLAEMKMKKDLFPVGREIAGIVLDVGSKVSFFQPDDEVVGILPLDSEDPGLCEVVRVHEHYLVHKPEKVTWTEAAGSIRDGVRAYTALHYLSHLSPGKSVLIMDGASAFGTIAIQLAHHRGAKVISTACSLEDKQCLERFRPPIARVIDVSNGKVHVAESCLEETGGLGVDIVLDAGVRLYSKDDEPAVKLQLLPHKHDIITLLGVGGHWVTTEENLQLDPPDSHCLFLKGATLAFLNDEVWNLSNVQQGKYLCILKDVMEKLSTGVFRPQLDEPIPLYEAKVSMEAVQKNQGRKKQVVQF [CRYZL1] reads 56.9

Item: MAPKFPDSVEELRAAGNESFRNGQYAEASALYGRALRVLQAQGSSDPEEESVLYSNRAACHLKDGNCRDCIKDCTSALALVPFSIKPLLRRASAYEALEKYPMAYVDYKTVLQIDDNVTSAVEGINRMTRALMDSLGPEWRLKLPSIPLVPVSAQKRWNSLPSENHKEMAKSKSKETTATKNRVPSAGDVEKARVLKEEGNELVKKGNHKKAIEKYSESLLCSNLESATYSNRALCYLVLKQYTEAVKDCTEALKLDGKNVKAFYRRAQAHKALKDYKSSFADISNLLQIEPRNGPAQKLRQEVKQNLH [TOMM34] | melting temperature: 48.8

So, MSDTAVADTRRLNSKPQDLTDAYGPPSNFLEIDIFNPQTVGVGRARFTTYEVRMRTNLPIFKLKESCVRRRYSDFEWLKNELERDSKIVVPPLPGKALKRQLPFRGDEGIFEESFIEERRQGLEQFINKIAGHPLAQNERCLHMFLQEEAIDRNYVPGKVRQ [SNX12] ? Its melting temperature was 50.7

Recorded melting temperature (sequence MLVSGRRRLLTVLLQAQKWPFQPSRDMRLVQFRAPHLVGPHLGLETGNGGGVINLNAFDPTLPKTMTQFLEQGEATLSVARRALAAQLPVLPRSEVTFLAPVTRPDKVVCVGMNYVDHCKEQNVPVPKEPIIFSKFASSIVGPYDEVVLPPQSQEVDWEVELAVVIGKKGKHIKATDAMAHVAGFTVAHDVSARDWQMRRNGKQWLLGKTFDTFCPLGPALVTKDSVADPHNLKICCRVNGEVVQSGNTNQMVFKTEDLIAWVSQFVTFYPGDVILTGTPPGVGVFRKPPVFLKKGDEVQCEIEELGVIINKVV [FAHD2A] ): 56.4
